Tested on: HT29 colon
Experiment: NCI-60 one-dose screen, 48 h
Conditions: 10 µM unless noted
Experimental: Growth inhibition of the HT29 human tumor cell line is measured as a screen for anti-cancer activity. Cells are grown in 96 well plates and exposed to the test compound for 48 hours. Compounds are tested at a single concentration, which is 10^-5 M for most compounds. The reported endpoint is percent growth (GI% or GIPRCNT), where numbers from 0 - 100% represent growth inhibition, and numbers from -100% - 0 represent cell death. For example, a value of 40 represents 60% growth inhibition. […]
About 83,000 compounds went through this panel and 20% of them were active in at least one assay; those are over-represented in the sample as a whole. The source made the active and inactive calls. How the source made its calls: active means growth percent below 10; inactive means the rest.
Possible outcomes: 1 = active, -1 = inactive

1. C=CCOC1=CC(=O)c2ccccc2C1=O; -1
2. CCN(CC)CCCC(C)Nc1c2ccc(Cl)cc2nc2ccc(O)cc12 (stereo unspecified); -1
3. CC1CC2Oc3ccc(Cl)cc3C(=O)N2O1 (stereo unspecified); -1
4. CC1OC(O[C@H]2/C=C/C=C/C=C/C=C/C=C/C=C/C=C/[C@H](C)[C@@H](O)[C@@H](C)[C@H](C)OC(=O)CC(O)CC(O)CCC(O)C(O)CC(O)C[C@]3(O)C[C@H](O)C(C(=O)O)C(C2)O3)C(O)[C@H](N)C1O (stereo partly specified); -1
5. Cc1cc(NCc2cc(Nc3ccnc4cc(Cl)ccc34)ccc2F)nc(N2CCCC2)n1; 1
6. C[n+]1cccc(CC(=O)NO)c1; -1

----------
system: UACC-257 melanoma; assay: NCI-60 one-dose screen, 48 h (100 = growth as untreated, 0 = no growth, -100 = all killed); conditions: 10 µM unless noted
This is part of a sample that, as a whole, favours compounds with a hit. Of some 83,000 tested, about 20% had one in any assay.
This section presents compounds with their documented growth values.
result.type: growth (%)

1) S=C(c1ccc2c(c1)OCO2)N1CCN(c2ccccc2Cl)CC1; 96.2
2) O=C(COc1ccc(/C=C2\Oc3ccccc3C2=O)cc1)c1ccc(Cl)cc1; 117
3) CNS(=O)(=O)c1n[nH]nc1-c1cc(C(C)(C)C)c(O)c(C(C)(C)C)c1; 84.7
4) O=C1/C(=C\c2cccnc2)SC(=S)N1CCc1ccc(O)cc1; 38.9
5) OC(COc1ccccc1Cl)COc1ccccc1Cl; 120
6) COc1ccc(OC)c2c1[nH]c(=O)c1c3ncccc3cn21; 37.4
7) CC1=NOC(=O)/C1=C\c1ccc(O)cc1; 101
8) CN1CCN(CCCOc2ccc3nc(Nc4ccc(F)c(F)c4)ccc3c2)CC1; -52.9
9) O=[N+]([O-])c1ccc(C2CC(c3ccccc3)=Nc3ccccc3S2)cc1 (stereo unspecified); 108
10) CCOC(=O)/C=C/c1cc2cc(-c3csc4ccccc34)ccc2[nH]1; 69.5
11) COc1ccc(-c2csc(C3=C(O)CN(C(C)C)C3=N)n2)cc1OC; 105

----------
test system: ACHN renal; assay: NCI-60 one-dose screen, 48 h (100 = growth as untreated, 0 = no growth, -100 = all killed); conditions: 10 µM unless noted
About 83,000 compounds went through this panel and 20% of them were active in at least one assay; those are over-represented in the sample as a whole.
// values below are reported growth
result.type: growth (%)

1) COc1cc(C2CC(=O)Nc3c2c(C)nn3-c2nc3ccccc3[nH]2)c(OC)c(OC)c1OC (centres undefined); 86.6
2) O=C(CSc1nnc(-c2ccc(NC(=O)c3cccnc3)cc2)o1)N[C@@H](Cc1ccc(O)cc1)C(=O)O; 98.6
3) O=c1oc2ccccc2c(Cl)c1Cl; 80.7
4) Fc1c[c-]c(-c2ccccn2)c(F)c1.[CH3-].[Pt+2].c1ccc(P(C[PH+](c2ccccc2)c2ccccc2)c2ccccc2)cc1; -100
5) COC(=O)[C@]12CC[C@@H](C)[C@H](C)[C@@H]1C1=CC[C@@H]3[C@@]4(C)C(C=O)=C[C@@](C)(COC(=O)/C=C/c5ccccc5)[C@@H]4[C@H](O)C[C@@]3(C)[C@]1(C)CC2; -14.7
6) C=C1C(=O)O[C@H]2[C@H]1CC/C(COC(=O)C(=O)c1c[nH]c3ccccc13)=C\CC[C@@]1(C)O[C@@H]21; -36
7) COc1cccc(-c2nn(-c3ccccc3)cc2-c2ccnc(NCCNC(=O)Nc3ccccc3)c2)c1; 68.9
8) CCCCC1CCCCN1C(=O)OCC (centres undefined); 103
9) Cc1nn(-c2ccccc2)c(Oc2ccc(Cl)cc2)c1/C=N\N=c1/sc2ccccc2n1C; 93.9
10) Cc1ccc(Cc2cnc(NC(=O)c3ccc4noc(-c5ccccc5)c4c3)s2)cc1; 99
11) Cc1ccc(Cl)c(NS(=O)(=O)c2ccc(-c3cnc(C4CC4)o3)cc2)c1; 36
12) COc1ccc(C(=NN=C(N)N)c2ccc(OC)cc2)cc1; 37.6
13) Cn1c(-c2c(N)n(Cc3cccnc3)c3nc(C#N)c(C#N)nc23)nc2ccccc21; 85.8
14) COc1cc(C2CC(c3ccc(Nc4ccnc5cc(Cl)ccc45)cc3)=NN2C=O)cc(OC)c1OC (centres undefined); 87.5
15) CCCCc1ccc(Nc2ccc(Nc3ccc(CCCC)cc3S(=O)(=O)O)c3c2C(=O)c2ccccc2C3=O)c(S(=O)(=O)O)c1; 94.5
16) COc1ccc(/C=N/C2=C(C#N)C(c3ccc(OC)cc3)c3ccc4ccccc4c3O2)cc1 (centres undefined); 81.4
17) CNC(=O)c1cc(Oc2cccc3nc(Nc4ccc(F)c(Cl)c4)ccc23)ccn1; 75.3
18) O=C1CCc2c(sc3[nH]c(=S)n(-c4ccc(OC(F)(F)F)cc4)c(=O)c23)C1; 80.3
19) CC(C)=C[C@@H]1c2c(c3ccccc3n(C)c2=O)O[C@H]2c3c(c4ccccc4n(C)c3=O)OC(C)(C)[C@@H]12; 70.4
20) CCCc1cc2c(=O)c(C(=O)OC)c[nH]c2cc1N(CC)CC; 92.7
21) COCCc1ccc(OCC(O)CNC(C)C)cc1 (centres undefined); 108
22) Cc1ccc(NCCN(C)C)c2c(=O)c3ccccc3sc12; 3.03
23) COc1cccc(-c2nn(-c3ccccc3)cc2-c2ccnc(NCCNC(=O)Nc3cccc(C(F)(F)F)c3)c2)c1; 35.1
24) CC(=O)OC1CCC2(C)C(=CC3C4CCC(=O)C4(C)CCC32)C1 (centres undefined); 101
25) O=C(/C=C/c1c(Cl)nc2sccn12)c1nccs1; 89.1
26) CC(C)(C)OC(=O)Nc1ccc2c(c1)C(NC(=O)Nc1cccc(C#N)c1)CC(C)(C)O2 (centres undefined); 50.9
27) CCOc1c(C#N)nnc2c(C#N)c(NC(=O)c3ccccc3)nn12; 98.4
28) COC(=O)c1c2c(c(C)[n+]([O-])c1C)C(=O)C(NCc1ccc(F)c(Cl)c1)=CC2=O; 30.9
29) COc1ccc(N2CCN(c3nc(-c4cc(OC)c(OC)c(OC)c4)nc4ccccc34)CC2)cc1; 90.6
30) COc1ccc(-c2nc3ccc4[nH]ncc4c3c3c2CCCC3)cc1B(O)O; 20.9
31) CCc1ccccc1NC(=O)/C(C#N)=C/c1ccc(OC)cc1; 97.4
32) CCC(CO)Nc1nc2ccc(Cl)cc2c2ccccc12 (centres undefined); 73.9
33) O=Cc1ccc(O)c2ncccc12; 110
34) CCCCn1c(=O)c2c(nc3n2CCCN3CCc2ccc(OCC(=O)NCCN(CC)CC)cc2)n(CCCC)c1=O; 78.3
35) CCOC(=O)c1c(/C=C/C(=O)O)nc2ccccc2c1/C=C/c1ccccc1; 43.2
36) O=C(O)CN1C(=O)CCC1=O; 96
37) NC(N)=Nc1nc2ccccc2n2c1nc1ccccc12; 11.7
38) CN(c1ccccc1)c1ccc2c(c1)OCCC21CC1Nc1cnccc1C(=O)O (centres undefined); 66.7
39) O=C(NC(Cc1nnc2n(Cc3ccccc3)c(=O)c3c4c(sc3n12)CCCC4)c1ccc(Cl)cc1)c1ccccc1 (centres undefined); 67.5

----------
tested on: MCF7 breast; experiment: NCI-60 one-dose screen, 48 h (100 = growth as untreated, 0 = no growth, -100 = all killed); conditions: 10 µM unless noted
This is part of a sample that, as a whole, favours compounds with a hit. Of some 83,000 tested, about 20% had one in any assay.
result.type: growth (%)

1) Cc1ccc(/C=C2\C(=O)N(C)c3ccc(S(=O)(=O)Nc4ccc(C(C)(C)C)cc4)cc32)s1; 54.6
2) CCN(CC)CCCC(C)Nc1c2ccc(Cl)cc2nc2ccc(O)cc12 (stereo not given); 6.22
3) CCCCCCCCCOc1c(OC)cc(C2CC(=O)Nc3c2c(C)nn3-c2nc3ccccc3[nH]2)cc1OC (stereo not given); 4.28
4) CN(C)c1ccc(-c2cc(-c3ccc(Nc4nc(Nc5ccc(Cl)cc5)nc(Nc5ccc(Cl)cc5)n4)cc3)no2)cc1; 13.4
5) Cc1cccc(NC(=O)CSc2nc3ccccc3[nH]2)c1; 92
6) N/C(=N/N=C/c1ccccc1)N/N=C\c1ccccc1; 31.6
7) Clc1cccc(Cl)c1/C=C/c1cc(/C=C/c2c(Cl)cccc2Cl)[nH]n1; 20.9
8) Cc1c(C(=O)NC(Cc2ccccc2)C(O)C(=O)NCc2ccc(F)cc2)[nH]c2ccccc2c1=O (stereo not given); 104
9) C[C@@H]1N=C(c2ccc3ccccc3n2)Nc2nc3ccccn3c2C1=O; 76.7
10) COc1cc(/C=N/NC(=O)Cn2c(C(C)C)nc3ccccc32)ccc1O; 95.1
